B1: POU domain, class 3, transcription factor 3, residues 320 to 388; numbered along this chain, P20264 (parent)
chain: DDLEQFAKQFKQRRIKLGFTQADVGLALGTLYGNVFSQTTICRFEALQLSFKNMCKLKPLLNKWLEEAD

# Variants of: B1
# run_description: abundance fitness (aPCA) (normalised: wild type 0, dead -1); higher = more abundant; growth selection in yeast, the domain comes from the species named
# applied_conditions: Homo sapiens
What abundance fitness was measured for each of the following?
Give bare numbers.

Solved entries:
variant_string: L26S
abundance fitness: 0.071

variant_string: V35Q
abundance fitness: 0.033

variant_string: C42W
abundance fitness: -0.38

variant_string: T30E
abundance fitness: -0.177

variant_string: D23I
abundance fitness: -0.704

For every item below, please supply its abundance fitness.
1. L26E
2. G29Q
3. T40S
4. C42A
5. T40G
6. G29L
7. T40W

Data returned:
0.133
-0.554
-0.49
0.076
-0.92
-0.929
-0.441
